All figures here come from patent EP0091519A1.

# Tested on: arachidonic acid-induced epidermal proliferation
# protocol: Arachidonic acid-induced epidermal proliferation in guinea pig ear skin (3H-thymidine labelling, liquid scintillation counting)
# Format: in vivo
# stated_conditions: Cavia porcellus; 1% drug topical; versus contralateral vehicle-treated ear; * statistically significant, + not significant due to variability; read-out: % Re-duction (cpm, proliferation)
Entries and their inhibition in vivo at 1 %
Be sure to follow the number with its unit.

What value of measured inhibition in vivo at 1 % is listed for `CCCCCCCCC(=O)Nc1ccc(O)cc1` ?
20.9%

GET /values?readout=inhibition in vivo at 1 %&item= `CCCCCCCCCCC(=O)Nc1ccc(O)cc1`
37.3%

Item under review: `CCCCCCCC(=O)Nc1ccc(O)cc1` . Reported inhibition in vivo at 1 %?
39.1%

Can you share its inhibition in vivo at 1 %? I mean this compound: `CCCCCC(=O)Nc1ccc(O)cc1`
28.3%

Fill in: inhibition in vivo at 1 % of `CCCCCCC(=O)Nc1ccc(O)cc1` is ___
27.3%

What value of inhibition in vivo at 1 % has been recorded for this entry: `CCCCCCCCCCCC(=O)Nc1ccc(O)cc1`
29%

Using the record for O=C(Nc1ccc(O)cc1)c1ccccc1 [4-benzoylaminophenol, reference compound] , report its inhibition in vivo at 1 %.
4.2%

Please give the measured inhibition in vivo at 1 % for this compound: CCCCCCCCCCCCCC(=O)Nc1ccc(O)cc1 [4-n-tetradecanoylaminophenol, reference compound]
15.1%

Would you mind telling me what inhibition in vivo at 1 % value was observed for CCC(=O)Nc1ccc(O)cc1 [4-propionylaminophenol, reference compound] ?
2.6%

Could you share which inhibition in vivo at 1 % value was measured for `CCCCCCCCCC(=O)Nc1ccc(O)cc1` ?
37.5%

Requested field: inhibition in vivo at 1 %. Item: `O=C(Nc1ccc(O)cc1)c1ccccc1O`
23.3%

Value lookup for inhibition in vivo at 1 %; key = CC(=O)Nc1ccc(O)cc1 [Acetaminophen, acetamidophenol, reference compound]
8%

Can you share its inhibition in vivo at 1 %? I mean this compound: CCCC(=O)Nc1ccc(O)cc1 [4-n-butyroylaminophenol, reference compound]
27.8%

---

# Tested on: arachidonic acid-induced erythema
# protocol: Arachidonic acid-induced erythema in guinea pig ear skin (subjective score 0 to 3, area under response curve)
# Format: in vivo
# stated_conditions: Cavia porcellus; 1% drug topical; versus contralateral vehicle-treated ear; read-out: % Re-duction (Total Erythema)
# label = Condition met if inhibition in vivo at 1 % >= 20% else Condition not met

Does the molecule CC(=O)Nc1ccc(O)cc1 [Acetaminophen, acetamidophenol, reference compound] have recorded inhibition in vivo at 1 % that is 20% or more?
Condition not met

Kindly determine if inhibition in vivo at 1 % recorded for CCCCCCCCCCCCCC(=O)Nc1ccc(O)cc1 [4-n-tetradecanoylaminophenol, reference compound] is above or exactly 20%.
Condition not met

Hello, I need to know if `CCCCCCCCCC(=O)Nc1ccc(O)cc1` has measured inhibition in vivo at 1 % not below 20%. Thanks!
Condition met

Kindly determine if inhibition in vivo at 1 % recorded for CCC(=O)Nc1ccc(O)cc1 [4-propionylaminophenol, reference compound] is above or exactly 20%.
Condition not met

# bool: inhibition in vivo at 1 % of O=C(Nc1ccc(O)cc1)c1ccccc1 [4-benzoylaminophenol, reference compound] >= 20%
Condition met

Confirm if inhibition in vivo at 1 % reported for the molecule CCCC(=O)Nc1ccc(O)cc1 [4-n-butyroylaminophenol, reference compound] is 20% or above.
Condition not met

Please indicate if the recorded inhibition in vivo at 1 % for `CCCCCCC(=O)Nc1ccc(O)cc1` meets or exceeds 20%.
Condition met

Given the entry `CCCCCC(=O)Nc1ccc(O)cc1` , answer whether its inhibition in vivo at 1 % meets or surpasses 20%.
Condition met

Is inhibition in vivo at 1 % at least 20%? Consider `CCCCCCCC(=O)Nc1ccc(O)cc1`
Condition met

Answer whether inhibition in vivo at 1 % of `CCCCCCCCC(=O)Nc1ccc(O)cc1` is greater than or equal to 20%.
Condition met

Please tell me: is the molecule `O=C(Nc1ccc(O)cc1)c1ccccc1O` at or over 20% in terms of inhibition in vivo at 1 %?
Condition met

Item `CCCCCCCCCCCC(=O)Nc1ccc(O)cc1` with inhibition in vivo at 1 % of 20% or above?
Condition met

Is inhibition in vivo at 1 % at least 20%? Consider `CCCCCCCCCCC(=O)Nc1ccc(O)cc1`
Condition met

---

# System: arachidonic acid-induced erythema
# protocol: Arachidonic acid-induced erythema in guinea pig ear skin (subjective score 0 to 3, area under response curve)
# Assay type: in vivo
# stated_conditions: 1% drug topical; area under curve of average erythema score (0 to 3) over four days
# Description: The effect of selected compositions on cutaneous inflammation caused by topical application of arachidonic acid was evaluated. In addition to inflammation, the proliferative response of the epidermis treated with arachidonic acid and the compositions was evaluated. Fourteen acylaminophenols were studied. […] Erythema developing in response to topical AA was measured daily on a subjective scale of 0 to 3; where 0 = none,1= mild, 2 = moderate, and 3 = intense. […]
Label Fulfilled when Total Erythema is strictly below 3; at or above that, label Not fulfilled.

Answered cases to consult:
- compound: "CC(=O)Nc1ccc(O)cc1 [Acetaminophen, acetamidophenol, reference compound]"
  target_or_system: "arachidonic acid-induced erythema"
  qualitative_label: "Not fulfilled"
- compound: "CCCC(=O)Nc1ccc(O)cc1 [4-n-butyroylaminophenol, reference compound]"
  target_or_system: "arachidonic acid-induced erythema"
  qualitative_label: "Not fulfilled"
- compound: "CCCCCCCCCCCCCC(=O)Nc1ccc(O)cc1 [4-n-tetradecanoylaminophenol, reference compound]"
  target_or_system: "arachidonic acid-induced erythema"
  qualitative_label: "Not fulfilled"
- compound: "CCCCCCCCCCCC(=O)Nc1ccc(O)cc1"
  target_or_system: "arachidonic acid-induced erythema"
  qualitative_label: "Not fulfilled"
- compound: "O=C(Nc1ccc(O)cc1)c1ccccc1O"
  target_or_system: "arachidonic acid-induced erythema"
  qualitative_label: "Not fulfilled"

Moving on to the next compound.
Item O=C(Nc1ccc(O)cc1)c1ccccc1 [4-benzoylaminophenol, reference compound] : Total Erythema beneath 3, strictly?
Not fulfilled

---

Below is a list of entries, each paired with its recorded Total Erythema value.
# Test system: arachidonic acid-induced erythema
# protocol: Arachidonic acid-induced erythema in guinea pig ear skin (subjective score 0 to 3, area under response curve)
# Assay type: in vivo
# stated_conditions: 1% drug topical; area under curve of average erythema score (0 to 3) over four days
# print the numeric value only

- compound: "CCCCCCC(=O)Nc1ccc(O)cc1"
  Total Erythema: 1.8
- compound: "CCCCCCCCC(=O)Nc1ccc(O)cc1"
  Total Erythema: 2.1

Consider the compound shown here: `CCCCCC(=O)Nc1ccc(O)cc1` What is its recorded Total Erythema?
1.9

Data request, read-out Total Erythema, for `CCCCCCCC(=O)Nc1ccc(O)cc1`
2.7

# input compound: CCC(=O)Nc1ccc(O)cc1 [4-propionylaminophenol, reference compound] ; wanted: its Total Erythema
5.5

Which Total Erythema value is on record for `CCCCCCCCCCC(=O)Nc1ccc(O)cc1` ?
2.1

Recorded Total Erythema for `CCCCCCCCCC(=O)Nc1ccc(O)cc1` , please?
2.0
